System: LOX IMVI melanoma
Assay: NCI tumour cell line growth inhibition, 48 h
Measured TGI by item

{"Compound": "O=c1nc2[nH]nc(-c3ccccc3)c2n[nH]1", "TGI": "> 100 µM"}
{"Compound": "COc1ccc(C2S/C(=C\\c3cccc([N+](=O)[O-])c3)C(=O)N2NC(=O)Cc2ccccc2)cc1 (stereo unspecified)", "TGI": "> 100 µM"}
{"Compound": "O=c1[nH][nH]c(=S)c(=O)[nH]1", "TGI": "> 100 µM"}
{"Compound": "Clc1cccc(Cl)c1C1SCc2nc3ncccc3n21 (stereo unspecified)", "TGI": "> 100 µM"}
{"Compound": "O=C1CSc2ccncc2N1", "TGI": "> 100 µM"}
{"Compound": "COc1cc2c(/C=C3/C(=O)Nc4c3ccc3ccccc43)c(Cl)[nH]c2cc1C", "TGI": "0.0304 µM"}
{"Compound": "O=C(/C=C/c1ccc2c(c1)OCO2)c1ccccc(=O)c1O", "TGI": "> 100 µM"}
{"Compound": "COc1ccc2c(c1)c(=O)oc1cc(OC/C(=N\\O)c3ccc(F)cc3)ccc12", "TGI": "33 µM"}
{"Compound": "Cn1c(C2CC(C)(C)c3c2c2ccccc2n3C)cc2ccccc21 (stereo unspecified)", "TGI": "> 304 µM"}
{"Compound": "Cc1nn(C(=O)c2ccncc2)c2c1C(c1ccccc1O)SC(N)=N2 (stereo unspecified)", "TGI": "> 10 µM"}
{"Compound": "N#C/C(N)=C(\\C#N)N=CNc1ccccc1N", "TGI": "> 100 µM"}

* * *

Tested on: SK-MEL-28 melanoma
Test: NCI tumour cell line growth inhibition, 48 h

{"Molecule": "Nc1nc(Cl)cc(NCC2(CO)CCC(OCc3ccccc3)C2)n1 (stereo not drawn)", "TGI": "> 100 µM"}
{"Molecule": "CC1(C)CC[C@]2(C(=O)O)CC[C@]3(C)C(=CC[C@@H]4[C@@]5(C)CC[C@@H]6OC(C)(C)OC[C@@]6(C)[C@@H]5CC[C@]43C)[C@H]2C1", "TGI": "29.2 µM"}
{"Molecule": "CCCCN1C(=O)C[C@H]2[C@@H]3CCc4cc(OCCN5CCCC5)ccc4[C@H]3CC[C@]2(C)C1=O", "TGI": "12 µM"}
{"Molecule": "O=C(NC1CCN(Cc2ccccc2)CC1)c1ccccc1I", "TGI": "36.5 µM"}
{"Molecule": "CSc1ccc2c(c1)C(=O)c1c-2n(CCCN=[N+]=[N-])c(=O)c2cc([N+](=O)[O-])ccc12", "TGI": "> 100 µM"}
{"Molecule": "CCC(CCCCC1CC[C@H]2CC(=O)C[C@@H]12)OC (stereo partly drawn)", "TGI": "> 100 µM"}
{"Molecule": "COc1cc([C@@H]2c3cc4c(cc3[C@H](O)[C@H]3COC(=O)[C@@H]23)OCO4)cc(OC)c1OC", "TGI": "> 100 µM"}
{"Molecule": "O=C1NCN(c2ccccc2)C12CCN(CCCSc1ccc(F)cc1)CC2", "TGI": "> 100 µM"}
{"Molecule": "O=C1C(c2c(O)[nH]c3ccc(S(=O)(=O)N(CCO)CCO)cc23)=Nc2ccccc21", "TGI": "> 100 µM"}
{"Molecule": "Clc1ccc(N=Cc2cc3cc(Br)ccc3nc2Cl)cc1", "TGI": "> 50 µM"}
{"Molecule": "O=C(O)C#Cc1ccc([N+](=O)[O-])cc1", "TGI": "> 100 µM"}
{"Molecule": "Cc1ccc(C2CC(c3cccc(Nc4ccncc4)c3)=NN2c2ccc(Cl)cc2)cc1 (stereo not drawn)", "TGI": "3.32 µM"}
{"Molecule": "COc1cc(CNC(=O)CCCCCCCCCCSSCCCCCCCCCCC(=O)NCc2ccc(O)c(OC)c2)ccc1O", "TGI": "> 10 µM"}
{"Molecule": "O=C(Nc1cccc2ccccc12)c1cc2ccccc2cc1O", "TGI": "22.4 µM"}
{"Molecule": "COc1ccc(OC)c2c3c(ncc12)-c1cc2c(cc1C3)OCO2", "TGI": "> 100 µM"}
{"Molecule": "O=C(O)CCCC#CCCCC(=O)O", "TGI": "> 100 µM"}
{"Molecule": "COc1ccc(C2C3=C(CCCC3=O)N(c3ccccc3)C3=C2C(=O)CCC3)cc1", "TGI": "> 100 µM"}
{"Molecule": "CC(C)(C)OC(=O)N1C(=O)OC[C@@H]2C=C[C@@H]21", "TGI": "> 100 µM"}
{"Molecule": "Nc1nc(Cl)cc(NCC2(CO)CC(Cc3ccccc3)C2)n1 (stereo not drawn)", "TGI": "> 100 µM"}
{"Molecule": "Cc1cc(Cl)ccc1Nc1nc(C(F)(F)F)ccc1C(=O)N/N=C/c1ccc(F)cc1", "TGI": "10.6 µM"}
{"Molecule": "CCOCC[P+](c1ccccc1)(c1ccccc1)c1ccccc1", "TGI": "70.6 µM"}
{"Molecule": "CCOC(=O)C1=C(N)Oc2cc(OC)ccc2C1c1ccc(F)c(F)c1 (stereo not drawn)", "TGI": "21.9 µM"}
{"Molecule": "N#C/C(N)=C(\\C#N)N=CNc1ccccc1N", "TGI": "> 100 µM"}
{"Molecule": "Cc1ccc2nc(Cl)c(/C=N/N3C(=O)/C(=C/Cc4ccco4)N=C3c3ccccc3)cc2c1", "TGI": "> 100 µM"}
{"Molecule": "Cn1cc(-c2nc(-c3cn(C)c4ncccc34)cs2)c2cc(F)ccc21", "TGI": "> 100 µM"}
{"Molecule": "CCN(CC)CCCC(C)Nc1ccnc2cc(Cl)c(SCc3ccccc3)cc12 (stereo not drawn)", "TGI": "2.41 µM"}
{"Molecule": "CCCNNC(=O)c1ccc(CNC(=O)/C=C/c2ccccc2)cc1", "TGI": "0.857 µM"}
{"Molecule": "Nc1nn(C(=O)Nc2ccc(Cc3ccccc3)cc2)c2ccccc12", "TGI": "> 100 µM"}
{"Molecule": "COC(=O)/C(Cl)=C1/CC1COCc1ccccc1 (stereo not drawn)", "TGI": "47.4 µM"}
{"Molecule": "CNC(=S)N/N=C(/C)CCC/C(C)=N/NC(=S)NC", "TGI": "> 100 µM"}
{"Molecule": "CCOC(=O)c1cc(C2(OC)CCN(Cc3ccccc3)C2=O)c(-c2cc(C)no2)[nH]1 (stereo not drawn)", "TGI": "> 100 µM"}
{"Molecule": "COc1cc([C@@H]2c3cc4c(cc3[C@@H](NC(=O)c3ccc([N+](=O)[O-])cc3)C3COC(=O)[C@@H]32)OCO4)cc(OC)c1O (stereo partly drawn)", "TGI": "89 µM"}
{"Molecule": "NS(=O)(=O)c1ccc(NCc2cnc3ccccc3c2)cc1", "TGI": "> 100 µM"}
{"Molecule": "CC[C@@H]1C[C@@H](O)[C@@H]2[C@H](O)[C@H](O)CN2C1", "TGI": "> 100 µM"}
{"Molecule": "O=C1c2ccc3ccccc3c2CCC1N1CCCCC1 (stereo not drawn)", "TGI": "33.1 µM"}
{"Molecule": "Cn1c2ccccc2c(=S)c2cc(NC(=O)CCCCC(=O)Nc3ccc4c(c3)c(=S)c3ccccc3n4C)ccc21", "TGI": "> 100 µM"}
{"Molecule": "CC(C)(Cc1ccccc1)Cc1cc(O)ccc1O", "TGI": "47.2 µM"}
{"Molecule": "Clc1cccc(Cc2cn3cc(-c4ccccc4)nc3s2)c1", "TGI": "> 100 µM"}
{"Molecule": "COc1ccc2cc(C(=O)/C=C/c3ccccc3OC)ccc2c1", "TGI": "> 94.8 µM"}
{"Molecule": "Cc1cc2c(=O)cc(-c3ccc(C(=O)O)cc3)oc2c(C(=O)O)c1C", "TGI": "> 100 µM"}
{"Molecule": "O=CN/C=C/c1ccccc1O", "TGI": "> 100 µM"}
{"Molecule": "N#Cc1ccccc1/C=N/O", "TGI": "> 100 µM"}
{"Molecule": "CCOC(=O)C1C(=O)CC(C)(O)C(C(=O)OCC)C1c1ccc(OC)cc1 (stereo not drawn)", "TGI": "> 100 µM"}
